Reported inhibition is given for each of the following molecules.
- Organism: Bos taurus
- Procedure summary: Inhibition of [3H]colchicine binding to bovine brain tubulin at 5 uM incubated for 10 mins by DEAE-cellulose filter method relative to control
Reported endpoint: inhibition (%)

1) COc1c(OC(C)C)cc2oc(-c3csc4ccccc34)c(O)c(=O)c2c1OC(C)C    0
2) CCCOc1cc2oc(-c3csc4ccccc34)cc(=O)c2c(O)c1OC    37
3) CCOc1cc2oc(-c3csc4ccccc34)cc(=O)c2c(O)c1OC    34
4) COc1c(OC(C)C)cc2oc(-c3csc4ccccc34)c(O)c(=O)c2c1OC    0
5) COc1c(OC(C)C)cc2oc(-c3csc4ccccc34)cc(=O)c2c1O    61
6) COc1c(OC(C)C)cc2oc(-c3csc4ccccc34)c(OC)c(=O)c2c1O    59
7) COc1c(OC(C)C)cc2c(c1O)C(=O)CC(c1csc3ccccc13)O2 (stereo not drawn)    76
8) COc1c(OC(C)C)cc2oc(-c3csc4ccccc34)c(O)c(=O)c2c1O    32

----------
- Procedure summary: Metabolic stability in human liver microsomes assessed as half life at 80 uM by HPLC analysis
- Format: ADME, Microsome
Reported endpoint: half-life at 80 µM (h)

1) COc1c(OC(C)C)cc2oc(-c3csc4ccccc34)cc(=O)c2c1O    4.81

All values here come from ChEMBL document CHEMBL4823281.
